measured.on: human CB2 receptor (Homo sapiens, UniProt P34972)
Construct: expressed in transfected cells; host or cells: human embryonic kidney (HEK) cells, Semliki Forest Virus system, membrane preparations
Sequence (P34972 whole entry): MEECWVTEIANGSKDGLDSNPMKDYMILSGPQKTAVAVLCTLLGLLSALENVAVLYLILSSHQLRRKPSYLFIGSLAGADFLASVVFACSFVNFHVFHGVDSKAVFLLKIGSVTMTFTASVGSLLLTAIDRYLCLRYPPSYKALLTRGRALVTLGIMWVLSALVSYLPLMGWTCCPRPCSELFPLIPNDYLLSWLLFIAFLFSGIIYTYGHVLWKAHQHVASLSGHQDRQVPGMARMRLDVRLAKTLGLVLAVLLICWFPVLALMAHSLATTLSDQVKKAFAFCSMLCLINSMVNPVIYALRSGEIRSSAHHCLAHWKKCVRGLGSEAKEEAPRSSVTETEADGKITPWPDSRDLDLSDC
assay.method.text: CB2 receptor affinity, [3H]-CP-55,940 displacement, HEK cell membranes
Assay type: binding
particulars: 10 μM compound, radioligand [3H]-CP-55,940
value.type: inhibition at 10 µM (%)

Use the examples below as a reference point.
{"columns": ["compound", "inhibition at 10 µM (%)"],
 "data": [
  ["O=C(NCc1csc(C2CC2)n1)c1ccc(OCC2CC2)c(-c2ccc(Cl)cc2)n1 [Example 57]", 36],
  ["O=C(NCc1nc(C(F)(F)F)no1)c1cnc(OC2CCC2)c(-c2ccc(Cl)cc2)c1 [Example 92]", 9]
]}

a = O=C(NCc1cc(C(F)(F)F)no1)c1cc(-c2ccc(Cl)cc2)c(OCC(F)(F)F)nn1 [Example 60]
b = O=C(NCc1cc(C(F)(F)F)on1)c1cc(-c2ccc(Cl)cc2)c(OCC(F)(F)F)nn1 [Example 67]
Q: Which of the two items, a and b , has the greater recorded inhibition at 10 µM? To answer, give the label that identifies your chosen option.
A: b

a = O=C(NCc1cc(C(F)(F)F)on1)c1cnc(OCC(F)(F)F)c(-c2ccc(Cl)cc2)c1 [Example 50]
b = COc1cc(CNC(=O)c2ncc(OCC(F)(F)F)c(-c3ccc(Cl)c(Cl)c3)n2)on1 [Example 25]
Q: Lower inhibition at 10 µM: a or b ? Select an item and report its label.
A: a

1 = COc1cc(CNC(=O)c2cnc(O[C@@H](C)C(F)(F)F)c(-c3ccc(Cl)cc3)n2)on1 [Example 29]
2 = O=C(NCc1nc(C(F)(F)F)no1)c1cnc(OCC(F)(F)F)c(-c2ccc(Cl)c(F)c2)c1 [Example 82]
Q: Pick the one with the larger inhibition at 10 µM: 1 vs 2 Field: selected label. Fill in the label of the entry you choose.
A: 2

a = CC(C)c1cc(CNC(=O)c2cc(-c3ccc(Cl)cc3)c(OCC(F)(F)F)cn2)on1 [Example 2]
b = O=C(NCc1nc(C(F)(F)F)no1)c1cnc(OC2CCC2)c(-c2ccc(Cl)c(F)c2)c1 [Example 93]
Q: So which one has the bigger inhibition at 10 µM here, a or b ? Answer with the label corresponding to your selection.
A: a

====

Overview of recorded inhibition at 10 µM for various compounds
measured.on: human CB1 receptor (Homo sapiens, UniProt P21554)
Construct: expressed in transfected cells; host or cells: human embryonic kidney (HEK) cells, Semliki Forest Virus system, membrane preparations
Sequence (P21554 whole entry): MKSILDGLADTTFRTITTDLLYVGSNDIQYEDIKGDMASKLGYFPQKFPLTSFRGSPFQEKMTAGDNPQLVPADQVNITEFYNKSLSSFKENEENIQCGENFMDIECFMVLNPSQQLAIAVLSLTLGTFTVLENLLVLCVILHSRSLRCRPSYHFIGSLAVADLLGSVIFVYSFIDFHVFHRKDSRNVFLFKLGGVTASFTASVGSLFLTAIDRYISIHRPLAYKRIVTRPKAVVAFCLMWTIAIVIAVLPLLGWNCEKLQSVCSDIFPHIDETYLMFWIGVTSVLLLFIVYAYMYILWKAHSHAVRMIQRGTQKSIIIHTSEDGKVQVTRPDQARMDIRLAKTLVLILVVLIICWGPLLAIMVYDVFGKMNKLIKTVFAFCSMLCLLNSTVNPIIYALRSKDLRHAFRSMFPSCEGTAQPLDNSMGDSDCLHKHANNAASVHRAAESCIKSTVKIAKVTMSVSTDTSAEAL
assay.method.text: CB1 receptor affinity, [3H]-CP-55,940 displacement, HEK cell membranes
Type: binding
particulars: read-out: CB1 receptor affinity [% inhibition @ 10 μM]
Express your answer in %, writing the number without its unit.

{"columns": ["given.smiles", "inhibition at 10 µM [%]"],
 "data": [
  ["CCc1cc(CNC(=O)c2cc(-c3ccc(Cl)cc3)c(OCC(F)(F)F)cn2)on1", 38]
]}

Q: Item O=C(NCc1cc(C(F)(F)F)no1)c1cnc(OCC(F)(F)F)c(-c2ccc(Cl)cc2)c1 with human CB1 receptor (Homo sapiens, UniProt P21554) - inhibition at 10 µM?
A: 49

Q: Try CC(C)c1nc(CNC(=O)c2cnc(OCC(F)(F)F)c(-c3ccc(Cl)cc3)c2)cs1 next.
A: 24

====

Tested on: ABCA1 protein
assay.method.text: Detection of upregulation of ABCA1 protein in THP-1 macrophage cells (ApoA-I binding, high content imaging)
Format: cell-based
particulars: 24 hrs with compound, AlexaFluor 647 ApoA-I binding, read-out: ABCA1 protein increasing efficacy EC50
value.type: pEC50
Reminder that pEC50 is minus the log10 of a molar concentration.

The examples below pair each entry with its known result.
{"columns": ["given.smiles", "pEC50"],
 "data": [
  ["O=C(NCc1nc(C(F)(F)F)no1)c1cnc(OCC(F)(F)F)c(-c2ccc(F)c(F)c2)c1", 5.71],
  ["COc1cc(CNC(=O)c2cc(-c3ccc(Cl)c(C)c3)c(OCC(F)(F)F)cn2)on1", 5.89],
  ["CCCn1ccc(CNC(=O)c2cc(-c3ccc(Cl)cc3)c(OCC(F)(F)F)cn2)n1", 5.55]
]}

Q: I am curious: what pEC50 value has been reported for CC(C)c1cc(CNC(=O)c2cc(-c3ccc(Cl)cc3)c(OCC(F)(F)F)cn2)on1 ?
A: 5.96

====

measured.on: human CB2 receptor (Homo sapiens)
Construct: expressed in transfected cells; host or cells: human embryonic kidney (HEK) cells, Semliki Forest Virus system, membrane preparations
assay.method.text: CB2 receptor affinity, [3H]-CP-55,940 displacement, HEK cell membranes
Format: binding
particulars: 10 μM compound, radioligand [3H]-CP-55,940
Procedure: The affinity of the compounds of the invention for cannabinoid CB2 receptors was determined using membrane preparations of human embryonic kidney (HEK) cells in which the human CB2 receptor is transiently transfected using a Semliki Forest Virus system in conjunction with [^3H]-CP-55,940 as radioligand. […] Radioactivity on the filter was measured by scintillation counting. […]
value.type: inhibition at 10 µM (%)

Below, 2 compounds whose answers are already recorded.
{"columns": ["given.smiles", "value.type", "unit.text", "result"],
 "data": [
  ["O=C(NCc1nc(C2CC2)no1)c1ncc(OCC2CC2)c(-c2ccc(Cl)cc2)n1", "inhibition at 10 µM", "%", 45],
  ["O=C(NCc1noc(C2CC2)n1)c1ncc(OCC2CC2)c(-c2ccc(Cl)cc2)n1", "inhibition at 10 µM", "%", 46]
]}

I = O=C(NCc1cc(C2CC2)no1)c1cc(-c2ccc(Cl)cc2)c(OCC(F)(F)F)cn1
II = O=C(NCc1cc(C2CC2)on1)c1cnc(OCC2CC2)c(-c2ccc(Cl)cc2)c1
Q: Select the item with the higher value of inhibition at 10 µM from the options I and II listed. Field: selected label. Fill in the label of the entry you choose.
A: II
(II: 38%, I: 26%)

====

measured.on: human CB2 receptor (Homo sapiens)
Construct: expressed in transfected cells; host or cells: human embryonic kidney (HEK) cells, Semliki Forest Virus system, membrane preparations
assay.method.text: CB2 receptor affinity, [3H]-CP-55,940 displacement, HEK cell membranes
Assay type: binding
particulars: 10 μM compound, radioligand [3H]-CP-55,940
value.type: inhibition at 10 µM (%)

{"columns": ["compound", "unit.text", "inhibition at 10 µM"],
 "data": [
  ["O=C(NCc1cc(C(F)(F)F)on1)c1ccc(OCC2CC2)c(-c2ccc(Cl)cc2)n1 [Example 58]", "%", 19],
  ["CCc1cc(CNC(=O)c2cc(-c3ccc(Cl)cc3)c(OCC(F)(F)F)cn2)on1 [Example 3]", "%", 18],
  ["CC(C)c1cc(CNC(=O)c2cc(-c3ccc(Cl)cc3)c(OCC(F)(F)F)cn2)no1 [Example 27]", "%", 24]
]}

====

System: ABCA1 protein
assay.method.text: Detection of upregulation of ABCA1 protein in THP-1 macrophage cells (ApoA-I binding, high content imaging)
Assay type: cell-based
particulars: 24 hrs with compound, AlexaFluor 647 ApoA-I binding, read-out: ABCA1 protein increasing efficacy EC50
Experimental: The ability of compounds of the invention to increase the level of ABCA1 protein is determined in replicate cultures of THP-1 macrophage cells in 96-well microplates. […] Fixed stained cells are washed and kept in PBS at 4° C. and can be read immediately until one month after preparation. […]
EC50 listing for selected molecules.
Please respond with the number in nM and leave the unit unwritten.

Field: example entries. Status: answers known.
{"columns": ["molecule", "unit.text", "result"],
 "data": [
  ["CCCn1ccc(CNC(=O)c2cnc(OCC(F)(F)F)c(-c3ccc(Cl)cc3)c2)n1 [Example 14]", "nM", 950],
  ["O=C(NCc1noc(C(F)(F)F)n1)c1cnc(OCC(F)(F)F)c(-c2ccc(Cl)cc2)c1 [Example 12]", "nM", 1180],
  ["CCc1nc(CNC(=O)c2cnc(OCC(F)(F)F)c(-c3ccc(Cl)cc3)c2)cs1 [Example 7]", "nM", 1500],
  ["O=C(NCc1cc(C(F)(F)F)no1)c1ncc(OCC(F)(F)F)c(-c2ccc(Cl)cc2)n1 [Example 61]", "nM", 820]
]}

Continue with the molecule presented below.
Q: Any idea what EC50 was measured for COc1cc(CNC(=O)c2cc(-c3ccc(Cl)cc3)c(OCC(F)(F)F)nn2)on1 [Example 23] ?
A: 930

====

measured.on: human CB1 receptor (Homo sapiens, UniProt P21554)
Construct: expressed in transfected cells; host or cells: human embryonic kidney (HEK) cells, Semliki Forest Virus system, membrane preparations
assay.method.text: CB1 receptor affinity, [3H]-CP-55,940 displacement, HEK cell membranes
Assay type: binding
particulars: 10 μM compound, radioligand [3H]-CP-55,940; read-out: CB1 receptor affinity [% inhibition @ 10 μM]
value.type: inhibition at 10 µM (%)

Guide cases for inhibition at 10 µM, answers given:
{"columns": ["given.smiles", "measured.on", "unit.text", "inhibition at 10 µM"],
 "data": [
  ["O=C(NCc1cc(C2CC2)on1)c1cc(-c2ccc(Cl)cc2)c(OCC(F)(F)F)cn1", "human CB1 receptor (Homo sapiens, UniProt P21554)", "%", 42],
  ["COc1cc(CNC(=O)c2cnc(OCC(F)(F)F)c(-c3ccc(F)c(F)c3)c2)on1", "human CB1 receptor (Homo sapiens, UniProt P21554)", "%", 20],
  ["CC(C)c1cc(CNC(=O)c2cc(-c3ccc(Cl)cc3)c(OCC(F)(F)F)cn2)on1", "human CB1 receptor (Homo sapiens, UniProt P21554)", "%", 30],
  ["CC(C)c1cc(CNC(=O)c2cc(-c3ccc(Cl)cc3)c(OCC(F)(F)F)nn2)on1", "human CB1 receptor (Homo sapiens, UniProt P21554)", "%", 37],
  ["COc1cc(CNC(=O)c2cnc(O[C@@H](C)C(F)(F)F)c(-c3ccc(Cl)cc3)n2)on1", "human CB1 receptor (Homo sapiens, UniProt P21554)", "%", 27],
  ["O=C(NCc1cc(C(F)(F)F)on1)c1ccc(OCC2CC2)c(-c2ccc(Cl)cc2)n1", "human CB1 receptor (Homo sapiens, UniProt P21554)", "%", 42],
  ["CC(C)c1cc(CNC(=O)c2cc(-c3ccc(Cl)cc3)c(OCC(F)(F)F)cn2)no1", "human CB1 receptor (Homo sapiens, UniProt P21554)", "%", 40],
  ["COc1cc(CNC(=O)c2cc(-c3ccc(Cl)cc3)c(O[C@@H](C)C(F)(F)F)cn2)on1", "human CB1 receptor (Homo sapiens, UniProt P21554)", "%", 40],
  ["O=C(NCc1nc(C(F)(F)F)no1)c1cnc(OCC(F)(F)F)c(-c2ccc(F)c(F)c2)c1", "human CB1 receptor (Homo sapiens, UniProt P21554)", "%", 28],
  ["O=C(NCc1nc(C2CC2)no1)c1ncc(OCC2CC2)c(-c2ccc(Cl)cc2)n1", "human CB1 receptor (Homo sapiens, UniProt P21554)", "%", 48]
]}

a = O=C(NCc1cc(C(F)(F)F)no1)c1ncc(OCC(F)(F)F)c(-c2ccc(Cl)cc2)n1
b = Cc1noc(CNC(=O)c2cnc(OCC(F)(F)F)c(-c3ccc(Cl)cc3)c2)n1
c = O=C(NCc1nc(C(F)(F)F)no1)c1cnc(OC2CCC2)c(-c2ccc(Cl)c(F)c2)c1
Q: # rank by inhibition at 10 µM, ascending (min first) # respond with the labels, arranged in the requested order
A: c, a, b
